- Assayed target: T1, Human recombinant AXL-FND1 (GST-FND1), from pET-41b(+) (human, UniProt P30530 225-331)
- T1 construct: Expressed in E. coli, purified on Glutathione Sepharose; analyte in all Biacore measurements; GST put first by the usual layout of pET-41; not shown: GST-tag of vector pET-41b(+) (Novagen)
- T1 sequence (looked up): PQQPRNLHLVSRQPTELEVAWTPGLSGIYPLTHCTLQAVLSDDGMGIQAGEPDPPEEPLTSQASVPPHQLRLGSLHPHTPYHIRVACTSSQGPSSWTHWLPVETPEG
- Protocol: SPR (Biacore T100): antibody captured on Protein A, GST-FND1 as analyte
Endpoint: pKd
Value format note: pKd is -log10 of concentration (mol/L); just state the number.

Please review the following examples before continuing.
{"Binder": "H24/L0 (antibody, human IgG1, kappa, V domains shown) VH: QVTLKESGPVLVKPTETLTLTCTVSGFSLSSFGVDWVRQAPGKGLEWMGVIWGGGSTNYNSALKDRLTISKDNSKSQVVLTMTNMDPVDTATYYCAGEGSKYGAWFAYWGQGTLVTVSS VL: DVVMTQSPLSLPVTLGQPASISCRSSQNIVHTNGNTYLEWYQQKPGKAPELLIYKVSNRFSGVPDRFSGSGSGTDFTLKISRVEAEDVGVYYCFQGSHIPFTFGQGTKLEIKR", "pKd": 8.59}
{"Binder": "H18/L0 (antibody, human IgG1, kappa, V domains shown) VH: QVTLKESGPVLVKPTETLTLTCTVSGFSLSEFGVDWVRQAPGKGLEWMGVIWGGGSTNYNSALKSRLTISKDNSKSQVVLTMTNMDPVDTATYYCAGEGSKYGAWFAYWGQGTLVTVSS VL: DVVMTQSPLSLPVTLGQPASISCRSSQNIVHTNGNTYLEWYQQKPGKAPELLIYKVSNRFSGVPDRFSGSGSGTDFTLKISRVEAEDVGVYYCFQGSHIPFTFGQGTKLEIKR", "pKd": 8.37}
{"Binder": "H17/L0 (antibody, human IgG1, kappa, V domains shown) VH: QVTLKESGPVLVKPTETLTLTCTVSGFSLSDFGVDWVRQAPGKGLEWMGVIWGGGSTNYNSALKSRLTISKDNSKSQVVLTMTNMDPVDTATYYCAGEGSKYGAWFAYWGQGTLVTVSS VL: DVVMTQSPLSLPVTLGQPASISCRSSQNIVHTNGNTYLEWYQQKPGKAPELLIYKVSNRFSGVPDRFSGSGSGTDFTLKISRVEAEDVGVYYCFQGSHIPFTFGQGTKLEIKR", "pKd": 8.46}

Prompt: Using the record for H27/L0 (antibody, human IgG1, kappa, V domains shown) VH: QVTLKESGPVLVKPTETLTLTCTVSGFSLSSFGVDWVRQAPGKGLEWMGVIWGGGSTNYNSELQDRLTISKDNSKSQVVLTMTNMDPVDTATYYCAGEGSKYGAWFAYWGQGTLVTVSS VL: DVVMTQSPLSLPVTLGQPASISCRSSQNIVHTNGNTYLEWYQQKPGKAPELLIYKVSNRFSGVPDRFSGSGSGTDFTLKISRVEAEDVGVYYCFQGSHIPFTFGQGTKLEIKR , report its pKd.
Response: 8.52

Prompt: Using the record for H9/L4 (antibody, human IgG1, kappa, V domains shown) VH: QVTLKESGPVLVKPTETLTLTCTVSGFSLSSFGVDWVRQAPGKGLEWMGVIWGGGSTNYNSALKSRLTISKDNSKSQVVLTMTNMDPVDTATYYCAGEGSKYGAWFAYWGQGTLVTVSS VL: DVVMTQSPLSLPVTLGQPASISCRSSQNIVHTNGNTYLEWYQQKPGEAPELLIYKVSNRFSGVPDRFSGSGSGTDFTLKISRVEAEDVGVYYCFQGSHIPFTFGQGTKLEIKR , report its pKd.
Response: 8.58

Prompt: Using the record for H38/L0 (antibody, human IgG1, kappa, V domains shown) VH: QVTLKESGPVLVKPTETLTLTCTVSGFSLSSFGVDWVRQAPGKGLEWMGVIWGGGSTNYNKALKSRLTISKDNSKSQVVLTMTNMDPVDTATYYCAGEGSKYGAWFAYWGQGTLVTVSS VL: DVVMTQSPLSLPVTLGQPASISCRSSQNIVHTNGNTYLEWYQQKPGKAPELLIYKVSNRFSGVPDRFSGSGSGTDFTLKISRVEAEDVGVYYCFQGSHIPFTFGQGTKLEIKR , report its pKd.
Response: 8.53

Where do the numbers come from? From patent US20120121587A1.
